Target: Cytochrome P450 2C8 (Homo sapiens)
Sequence (P10632 whole entry): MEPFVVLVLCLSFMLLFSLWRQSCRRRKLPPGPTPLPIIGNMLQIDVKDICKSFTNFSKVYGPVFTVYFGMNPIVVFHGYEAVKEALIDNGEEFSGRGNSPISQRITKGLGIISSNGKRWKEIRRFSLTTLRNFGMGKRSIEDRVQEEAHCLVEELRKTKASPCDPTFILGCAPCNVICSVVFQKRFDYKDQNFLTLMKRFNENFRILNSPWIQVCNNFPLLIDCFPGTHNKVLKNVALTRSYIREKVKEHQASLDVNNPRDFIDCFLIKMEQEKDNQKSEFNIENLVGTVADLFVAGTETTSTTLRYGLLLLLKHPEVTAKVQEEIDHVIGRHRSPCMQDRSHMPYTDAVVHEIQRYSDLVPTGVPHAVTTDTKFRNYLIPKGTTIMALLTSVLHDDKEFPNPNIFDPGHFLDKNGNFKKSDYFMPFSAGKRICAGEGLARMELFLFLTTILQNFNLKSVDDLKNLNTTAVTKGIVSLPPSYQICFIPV
Assay: Inhibition of human CYP2C8 expressed in yeast cells
Endpoint label: IC50 (µM)
Give your result in µM as a bare value.

# input Which value of IC50 has been reported for COc1cc(/C=C/C(=O)c2ccncc2)cc(OC)c1OC in the records?
# output 8.92

----------
Target: Cytochrome P450 2E1 (Homo sapiens, UniProt P05181)
Sequence (P05181 whole entry): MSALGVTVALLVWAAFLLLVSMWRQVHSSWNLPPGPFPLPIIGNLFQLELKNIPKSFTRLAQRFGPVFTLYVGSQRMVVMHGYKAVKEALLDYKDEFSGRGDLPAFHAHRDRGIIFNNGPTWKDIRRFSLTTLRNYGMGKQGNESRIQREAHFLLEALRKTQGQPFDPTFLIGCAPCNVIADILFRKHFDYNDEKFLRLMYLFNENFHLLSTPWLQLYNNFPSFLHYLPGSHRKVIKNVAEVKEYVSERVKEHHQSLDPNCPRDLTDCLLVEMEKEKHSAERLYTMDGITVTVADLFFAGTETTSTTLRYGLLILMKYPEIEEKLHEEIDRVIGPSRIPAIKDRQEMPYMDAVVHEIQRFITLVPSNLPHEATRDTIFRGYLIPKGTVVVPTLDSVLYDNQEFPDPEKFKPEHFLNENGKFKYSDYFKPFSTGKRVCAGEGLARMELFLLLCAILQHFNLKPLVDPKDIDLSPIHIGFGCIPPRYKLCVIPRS
Experiment: Inhibition of human CYP2E1 expressed in yeast cells
pIC50: −log10 of the molar value.
Endpoint label: pIC50

# input Query the reported pIC50 for Cytochrome P450 2E1 (Homo sapiens, UniProt P05181); item: COc1cc(/C=C/C(=O)c2ccncc2)cc(OC)c1OC
# output < 5.00

----------
Here, each record is paired with measured pIC50 data.
Target: Cytochrome P450 1A1 (Homo sapiens, UniProt P04798)
Sequence (P04798 whole entry): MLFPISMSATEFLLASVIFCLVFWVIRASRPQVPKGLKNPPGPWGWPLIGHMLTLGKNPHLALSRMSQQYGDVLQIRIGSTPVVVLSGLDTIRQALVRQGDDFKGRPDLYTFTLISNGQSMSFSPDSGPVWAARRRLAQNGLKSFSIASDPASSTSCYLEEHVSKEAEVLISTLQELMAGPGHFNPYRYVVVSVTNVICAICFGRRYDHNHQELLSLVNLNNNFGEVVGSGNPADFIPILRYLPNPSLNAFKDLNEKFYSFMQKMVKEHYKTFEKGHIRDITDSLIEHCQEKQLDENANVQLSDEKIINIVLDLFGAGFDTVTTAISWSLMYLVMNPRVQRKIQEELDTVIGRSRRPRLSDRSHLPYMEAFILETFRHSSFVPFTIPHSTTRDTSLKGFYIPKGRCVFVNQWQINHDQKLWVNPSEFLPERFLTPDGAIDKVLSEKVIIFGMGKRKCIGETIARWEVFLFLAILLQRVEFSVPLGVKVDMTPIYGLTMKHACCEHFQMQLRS
Test: Inhibition of human CYP1A1 expressed in yeast microsomal membranes using 7-ethoxyresorufin as substrate measured after 10 mins by fluorescence assay
Format: cell membranes
Scale for pIC50: -log10 of concentration given in mol/L; no unit attached.

# input Field request: pIC50 | item: CCOc1cc(/C=C/C(=O)c2ccncc2)cc(OC)c1OC
# output 7.20

# input What measured pIC50 goes with COc1ccccc1/C=C/C(=O)c1ccncc1 ?
# output 6.24

# input Using the record for O=C(/C=C/c1cccc2ccccc12)c1ccncc1 , report its pIC50.
# output 6.29

# input For the molecule shown here, COc1cc(/C=C/C(=O)c2ccncc2)cc(OC)c1OC , give the reported pIC50.
# output 7.21

# input Give the measured pIC50 of CCOc1cc(/C=C/C(=O)c2ccncc2)cc(OCC)c1OCC .
# output 7.04

----------
Target: Cytochrome P450 1A1 (Homo sapiens, UniProt P04798)
Test: Inhibition of human CYP1A1 expressed in yeast cells
Assay type: cell-based
Endpoint label: pIC50
Entry type: numeric. Quantity: pIC50, the -log10 of concentration in molar units.

# input State the recorded pIC50 for this entry: COc1cc(/C=C/C(=O)c2ccncc2)cc(OC)c1OC
# output 6.82

----------
Measured pIC50, listed per entry.
Molecular target: Cytochrome P450 1A1 (Homo sapiens, UniProt P04798)
Sequence (P04798 whole entry): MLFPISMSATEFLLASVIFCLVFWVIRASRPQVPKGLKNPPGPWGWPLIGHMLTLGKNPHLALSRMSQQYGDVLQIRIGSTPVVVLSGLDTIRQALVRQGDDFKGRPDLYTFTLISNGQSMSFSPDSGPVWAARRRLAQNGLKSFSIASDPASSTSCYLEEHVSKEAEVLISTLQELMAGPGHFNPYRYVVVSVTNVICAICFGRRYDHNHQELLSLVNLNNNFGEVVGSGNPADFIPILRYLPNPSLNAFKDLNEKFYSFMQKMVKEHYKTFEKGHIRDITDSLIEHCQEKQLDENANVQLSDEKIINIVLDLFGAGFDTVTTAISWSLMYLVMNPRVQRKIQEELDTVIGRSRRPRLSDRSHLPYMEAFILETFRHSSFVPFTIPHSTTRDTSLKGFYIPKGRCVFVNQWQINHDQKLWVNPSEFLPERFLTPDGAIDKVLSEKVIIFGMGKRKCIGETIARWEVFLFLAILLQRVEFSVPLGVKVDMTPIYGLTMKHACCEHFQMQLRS
Experiment: Inhibition of recombinant human CYP1A1 expressed in HEK293 cells using 7-ethoxyresorufin as substrate pretreated for 30 mins followed by substrate addition measured for 60 mins by fluorescence assay
Format: cell-based
Worth noting: pIC50 values are minus log10 of concentrations stated in mol/L.

# example entries with known answers
COc1cccc(/C=C/C(=O)c2ccncc2)c1 ... 6.21
COc1cc(/C=C/C(=O)c2ccncc2)cc(OC)c1OC ... 7.24
COc1ccccc1/C=C/C(=O)c1ccncc1 ... 6.21
COc1ccc(/C=C/C(=O)c2ccncc2)cc1 ... 5.18
COc1cc(/C=C/C(=O)c2ccncc2)cc(OC)c1 ... 6.66

# input Short answer please: pIC50, Cytochrome P450 1A1 (Homo sapiens, UniProt P04798), entry O=C(/C=C/c1cccc2ccccc12)c1ccncc1
# output 6.26

# input Hello, I am looking for reported pIC50 with Cytochrome P450 1A1 (Homo sapiens, UniProt P04798) for COc1ccc(/C=C/C(=O)c2ccncc2)cc1OC . Could you help?
# output 6.38

# input GET /values?readout=pIC50&system=Cytochrome P450 1A1 (Homo sapiens, UniProt P04798)&item= CCOc1cc(/C=C/C(=O)c2ccncc2)cc(OC)c1OCC
# output 7.19

# input Checklist item: pIC50 tested on Cytochrome P450 1A1 (Homo sapiens, UniProt P04798), entry CCOc1cc(/C=C/C(=O)c2ccncc2)cc(OCC)c1OCC , value?
# output 7.04

# input Find the measured pIC50: item CCOc1c(OC)cc(/C=C/C(=O)c2ccncc2)cc1OC , target or system Cytochrome P450 1A1 (Homo sapiens, UniProt P04798).
# output 6.55

# input // lookup pIC50 | system=Cytochrome P450 1A1 (Homo sapiens, UniProt P04798) | key= CCOc1cc(/C=C/C(=O)c2ccncc2)cc(OC)c1OC
# output 7.20

# input Provide value of pIC50 for this record tested with Cytochrome P450 1A1 (Homo sapiens, UniProt P04798): COc1ccc(/C=C/C(=O)c2ccncc2)c(OC)c1OC
# output 5.88

# input Provide value of pIC50 for this record tested with Cytochrome P450 1A1 (Homo sapiens, UniProt P04798): O=C(/C=C/c1ccc2c(c1)OCO2)c1ccncc1
# output 5.95
